Origin of values: ChEMBL document CHEMBL1201862

# study.system: Cytochrome P450 2C9 (Homo sapiens, UniProt P11712)
# Sequence (P11712 whole entry): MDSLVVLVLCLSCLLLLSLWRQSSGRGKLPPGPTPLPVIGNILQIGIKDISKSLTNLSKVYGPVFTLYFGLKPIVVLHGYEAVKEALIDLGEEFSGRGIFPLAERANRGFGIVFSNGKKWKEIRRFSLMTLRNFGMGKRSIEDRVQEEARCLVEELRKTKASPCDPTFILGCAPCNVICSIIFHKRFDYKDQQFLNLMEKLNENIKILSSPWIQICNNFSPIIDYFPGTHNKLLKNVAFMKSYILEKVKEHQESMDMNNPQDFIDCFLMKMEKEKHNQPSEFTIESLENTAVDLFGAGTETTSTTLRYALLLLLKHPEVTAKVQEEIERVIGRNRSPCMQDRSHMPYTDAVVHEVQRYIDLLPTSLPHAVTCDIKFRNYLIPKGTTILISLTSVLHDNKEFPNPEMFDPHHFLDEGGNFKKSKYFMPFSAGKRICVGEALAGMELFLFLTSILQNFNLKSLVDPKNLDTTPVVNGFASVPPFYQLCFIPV
readout.type: AC50

>>> df
                                   compound  readout_type                  result
0  Cn1c(=O)c2c(-c3cccc(F)c3)c3c(nc2n(C)c1=O)-c1ccccc1C3O (centres undefined)          AC50  2.82 µM (inconclusive)
1  O=C(NCc1ccc(F)cc1)C(c1ccncc1)N(C(=O)c1csnn1)C1CC1 (centres undefined)          AC50  8.91 µM (inconclusive)
2  COc1ccc(O[C@H]2C=C[C@@H](c3ccccc3)O[C@@H]2CO/N=C(\C)CCN2CCCCc3nc(C)c(C)cc32)cc1          AC50  6.31 µM (inconclusive)
3  O=C(Nc1ccc(-n2nncc2-c2ccco2)cc1)c1ccc(F)cc1          AC50  11.2 µM (inconclusive)
4  COC(=O)c1nn(C23CC4CC(CC(C4)C2)C3)c2c1C(=O)N(c1ccc(F)cc1)C2=O          AC50  12.6 µM (inconclusive)
5  CN(C)S(=O)(=O)c1ccc(Nc2ccc(O)c3c2C(=O)c2c([N+](=O)[O-])ccc(O)c2C3=O)cc1          AC50  3.16 µM (inconclusive)
6  Cc1c(N2C(=O)CS/C2=N\N=C\c2ccc(Cl)cc2)c(=O)n(-c2ccccc2)n1C          AC50  31.6 µM (inconclusive)
7        Cc1cc(=O)oc(C)c1C(=O)Nc1ccc(Cl)cn1          AC50    20 µM (inconclusive)
8  CCOC(=O)c1cnn(-c2ccccc2)c1-n1cccc1C(=O)C(=O)Nc1ccccc1C(F)(F)F          AC50  5.62 µM (inconclusive)

###

# study.system: Caspase-3 (Homo sapiens, UniProt P42574)
# Sequence (P42574 29-175 limits assumed): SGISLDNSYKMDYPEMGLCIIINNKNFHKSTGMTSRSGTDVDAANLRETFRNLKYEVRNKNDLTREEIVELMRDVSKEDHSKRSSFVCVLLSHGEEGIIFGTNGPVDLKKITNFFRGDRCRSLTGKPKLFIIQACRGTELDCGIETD
# Sequence (P42574 176-277 limits assumed): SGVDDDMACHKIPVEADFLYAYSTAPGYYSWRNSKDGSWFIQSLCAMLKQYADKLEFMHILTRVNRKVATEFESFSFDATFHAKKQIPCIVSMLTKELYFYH
# experiment: SAR Analysis of small molecule inhibitors of Sentrin-specific proteases (SENPs) using a Caspase-3 Selectivity assay. [Related pubchem assays (depositor defined):AID2540, AID2599, AID434973, AID489001]
# Assay type: functional
Calls of active or inactive are those of the source.
Classes used: label 1 for active, label 0 for inactive

In [3]: df
Out[3]:
                          chemical_smiles  assigned_class
0            Oc1ccccc1-c1nc(-c2ccccc2)no1         label 1
1  COC(=O)c1ccc(NC(=O)c2ccc3c(c2)OCO3)cc1         label 1
2   CCCC(=O)Nc1ccc(-c2nc3cc(Cl)ccc3o2)cc1         label 0
3        CCCCc1ccc2nc(NC(=O)c3cccs3)sc2c1         label 1

###

# study.system: Troponin, cardiac muscle (Homo sapiens, UniProt P19429+P45379+P63316)
# experiment: Fluorescence-based biochemical high throughput dose response assay for activators of the calcium sensitivity of cardiac Regulated Thin Filaments (RTF). [Related pubchem assays (depositor defined):AID493008, AID493018, AID504382, AID504383]
# Type: protein-complex assay
Calls of active or inactive are those of the source.
Classes used: active, inactive

In [3]: df
Out[3]:
                                   molecule  assigned_class
0  C=COc1ccc(N2C(=O)c3ccccc3OC2C)cc1 (centres undefined)        inactive
1  Cc1cc(/C=C2\SC(=S)N(Cc3ccco3)C2=O)c(C)n1-c1cccnc1          active
2   CCN(CC)CCN1C(=O)c2cccc3cc(N)cc(c23)C1=O        inactive
3               COc1ccc2nc(C)c3cc(C)oc3c2c1        inactive
